experiment: NCI Yeast Anticancer Drug Screen. Data for the bub3 strain (AID 167)
condition-summary: S. cerevisiae bub3 mutant strain, at 50.0 µM, hits give high values
About 79,000 compounds went through this panel and 15% of them were active in at least one assay; those are over-represented in the sample as a whole.
Binned growth inhibition; ranges: bottom end: < 40%; midrange: ≥ 40% and < 90%; top end: ≥ 90%

Sample answers from the record:
Problem: Place this compound in its band: "O=C(CCl)[O][Bi]([O]C(=O)CCl)([c]1ccccc1)([c]1ccccc1)[c]1ccccc1"
Result: bottom end

Problem: GET /class?item= "CC[N+](CC)(CC)Cc1ccc(C[N+](CC)(CC)CC)cc1"
Result: top end

Problem: GET /class?item= CC1CCCN(CC(O)CN2CCCc3ccccc32)C1 (stereo not drawn)
Result: top end

Problem: Which class is correct for the following compound? CN(C)CC(O)c1cc(-c2ccc(Cl)c(Cl)c2)nc2c(Cl)cc(Cl)cc12 (stereo not drawn)
Result: top end

Problem: Exercise: read the entry "CCCc1nc2ccccc2c(=O)n1/N=C/c1ccccc1O" and state which class it falls under.
Result: midrange

Problem: Category of "CCOC(=O)/C(Cl)=C(\C)Nc1nc2c(ccc3ccccc32)s1" , please.
Result: top end

Problem: Any idea which band OC(c1ccccc1)(C(F)(F)F)C(O)(c1ccccc1)C(F)(F)F (stereo not drawn) is in?
Result: midrange

Problem: Field: class (growth inhibition) — entry: "COc1cc(OC(C)C)cc2c1C(=O)C(C(O)(O)C(F)(F)F)=CC2=O"
Result: midrange

Problem: // return the class label for "FC(F)(F)c1[nH]nc(-c2ccc(Cl)cc2)c1N=NN1CCOCC1"
Result: midrange

Problem: Sort "Cc1ccc(C(=O)C(F)(F)F)cc1" into one of the categories.
Result: bottom end

Others:
Problem: Consider "CC(C)C[C@H](NC(=O)[C@H](Cc1ccccc1)NC(=O)c1cnccn1)B(O)O" . To which growth inhibition class does it belong?
Result: midrange

Problem: Textbook exercise: identify the category of the compound given here, "COc1ccc2c(C#N)cc3c(c[n+](C)c4ccccc34)c2c1" , according to its measured value.
Result: midrange

Problem: Determine which band this compound sits in: "O=C1C=CC(=O)c2ccc(=O)ccc21"
Result: bottom end

Problem: Which bin, given its growth inhibition, does COc1cccc2c1C(=O)c1c(O)c3c(c(O)c1C2=O)CC(O)(C(=O)CO)CC3OC1CC(N)C(O)C(C)O1.[Cl][Pt+2][Cl].[NH2-].[NH2-] (stereo not drawn) occupy?
Result: bottom end

Problem: Which category does the recorded growth inhibition put "CCc1ccc(CC(=O)O)c2ccc3c(C)ccc(C)c3c12" in?
Result: midrange

Problem: Tag the class for O=C(CC1(O)C(=O)Nc2c(Cl)cc(Cl)cc21)c1ccc(Br)cc1Br (stereo not drawn)
Result: top end

Problem: Sort "O=C(/C=C(/Nc1ccccc1)C(=O)c1ccccc1)c1ccccc1" into one of the categories.
Result: midrange

Problem: Kindly identify the class of "CC(C)c1cc(C(=O)[O-])c(O)c(C(C)C)c1.CC(C)c1cc(C(=O)[O-])c(O)c(C(C)C)c1.CC(C)c1cc(C(=O)[O-])c(O)c(C(C)C)c1.CC(C)c1cc(C(=O)[O-])c(O)c(C(C)C)c1.CC(C)c1cc(C(=O)[O-])c(O)c(C(C)C)c1.CC(C)c1cc(C(=O)[O-])c(O)c(C(C)C)c1.[Cu+2].[Mn+2].[Mn+2]" .
Result: midrange

These measurements were taken from PubChem BioAssay (NCI).
